# Tgt: shed MICA008 polypeptide (human) (UniProt Q29983)
# Measurement description: capture ELISA (anti-hFc / antibody / shed antigen / biotin-6D4)
Measurement kind: EC50
Give your result as the value with the unit written after it.

Examples with answers:
{"Binder": "6E1.1.12 (antibody, human IgG1, kappa, V domains shown) VH: QGQMQQSGAELVKPGASVKLSCKTSGFTFSDNYISWLKQKPGQSLEWIAWIYAGTGGSSYNQKFRDKAQLTVDTSSRTAYMQLSSLTTEDSAIYYCARHDYYGTSGAWFAYWGRGTLVTVSA VL: DVLMTQTPLSLPVSLGDQASISCRSSQHIVHSNENTYLEWYLQKPGQSPKLLIYKVSNRFSGVPDRFSGSGSGTDFTLKISRVEAEDLGVYYCFQGSHVPWTFGGGTKVEIKR", "EC50": "0.22 µg/mL"}
{"Binder": "1D5 (antibody, human IgG1, kappa, V domains shown) VH: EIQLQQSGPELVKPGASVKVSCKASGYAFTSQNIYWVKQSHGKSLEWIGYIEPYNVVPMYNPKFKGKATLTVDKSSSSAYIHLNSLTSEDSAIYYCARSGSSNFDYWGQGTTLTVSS VL: EIILTQSPTTMAASPGEKITITCSASSSISSHYLHWYQQKSGFSPKLLIYRTSNLASGVPARFSGSGSGTSYSLTIGTMEAEDVATYYCQQGSSLPLTFGAGTKVEIKR", "EC50": "0.03 µg/mL"}
{"Binder": "#36 (antibody, V domains shown) VH: QVQLQQSGPELVKPGASVKVSCKASGYAFTKYNIYWVKQSHGKSLEWIGYIDPYNGGTVYNQKFKGKATLTVDKSSSTAYMHLNSLTSEDSAVYYCATTDGYSLFTYWGQGTLVTVSA VL: DIQMTQTTSSLSASLGDRVTISCRASQDISNYLNWYQQKPDGTVKLLIYYTSRLHSGVPSRFSGSGSGTDYSLTISNLEQEDIATYFCQQGNTLPFTFGSGTKLEIK", "EC50": "0.38 µg/mL"}
{"Binder": "#31 (antibody, V domains shown) VH: EVQLQQSGPELVKPGASVKVSCKASGYAFTKYNIYWVKQSHGKSLEWIGYIDPYNGGTVQNQKFKGKATLTVDKSSSTAYMHLNSLTSEDSAVYYCATTDGYSLFTYWGQGTLVTVSS VL: DIQMTQTTSSLSASLGDRVTISCRASQDIGNYLNWYQQKPDGTVKLLIYYTSRLHSGVPSRFSGSGSGTDYSLTISNLEQEDIATYFCQQGNTLPFTFGSGTKLEIK", "EC50": "0.26 µg/mL"}
{"Binder": "#39 (antibody, V domains shown) VH: QVQLQQSGAELVRPGTSVKVSCKASGYAFTDYLIEWVKQRPGQGLEWIGGINPGSGSTNYNEKFKGKAILTADKSSSTAYMQLSSLTSDDSAVYFCARLDGNYVGYWGQGTTLTVSS VL: DILLTQSPASLSASVGETVTITCRASGNIHNYLAWYQQKQGKSPQLLVYHAKTLADGVPSRFSGSGSGTQYSLKINSLQPEDFGSYYCQHFWSTPWTFGGGTKLEIK", "EC50": "0.52 µg/mL"}
{"Binder": "#40 (antibody, V domains shown) VH: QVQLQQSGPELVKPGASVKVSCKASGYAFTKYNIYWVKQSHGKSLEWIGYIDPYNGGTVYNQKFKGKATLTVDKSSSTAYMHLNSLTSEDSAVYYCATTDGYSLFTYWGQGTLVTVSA VL: DIQMTQTTSSLSASLGDRVTITCSAGQGINNYLNWYQQKPDGTVKLLIFYTSSLQSGVPSRFSGSGSGADYSLTISNLEPEDIATYYCQQYSKLPLTFGAGTKLELK", "EC50": "0.44 µg/mL"}
{"Binder": "13A9 (antibody, human IgG1, kappa, V domains shown) VH: QVQLQQSGAELVRPGTSVKVSCKASGYAFTNYLIEWVKQRPGQGLEWIGAINPGSGATNYNEKFKDKARLTADKSSNTAYLQFSSLTSDDSAVYFCARFLGNYFDNWGQGATLTVSS VL: DIQMTQSPASLSASVGETVTITCRASGNIHSYLAWYQQKQGKSPQLLVYYAETLADGVPSRFSGRGSGTQYSLKINSLQPEDFGSYFCQQFWTTPYTFGGGTKVEIKR", "EC50": "0.22 µg/mL"}
{"Binder": "#34 (antibody, V domains shown) VH: QVQLKQSGPELVKPGASVKVSCKASGYAFTKYNIYWVKQSHGKSLEWIGYIDPYNGGTVQNQKFKGKATLTVDKSSSTAYMHLNSLTSEDSAVYYCATTDGYSLFTYWGQGTLVTVSS VL: DIVLTQSPTTMAASPGEKITITCSASSSISSNYLHWYQQKPGFSPKLLIYRTSNLASGVPARFSGSGSGTSYSLTIGTMEAEDVATYYCQQGSSIPFTFGSGTKLEIK", "EC50": "0.3 µg/mL"}
{"Binder": "#38 (antibody, V domains shown) VH: QVQLQQSGAELARPGASVKLSCKASGYTFSIHWMQWVKQRPGQGLEWIGAIYPGNGDTKYTQKFKGKATLTADKSSSTAYMQLSNLASEDSAVYYCATLYGNYEAYWGQGTLVTVSA VL: DIVLTQSPASLSASVGETVTITCGASENIYGALNWYQRKQGKSPQLLIYGTTNLADGMSSRFSGSGSGRQYSLKISSLHPDDVATYYCQNVLTTPPWTFGGGTKLEIK", "EC50": "0.2 µg/mL"}

Consider now this further binder.
q: What value of EC50 has been recorded for this entry: 3F9 (antibody, human IgG1, kappa, V domains shown) VH: QVQLVESGGGLVKPGGSLRLSCAASGFTFSNYAMSWIRQAPGKGLEWVSYISPGGDYIYYADSVKGRFTISRDNAKNSLYLQMNSLRAEDTAVYYCTTDRRHYGSYAMDYWGQGTLVTVSS VL: DIVMTQSPLSLPVTPGEPASISCRSSKSLLHSNLNTYLYWFLQKPGQSPQILIYRMSNLASGVPDRFSGSGSGTAFTLKISRVEAEDVGVYYCMQHLEYPFTFGPGTKLEIKR
a: 0.22 µg/mL

All values here come from patent US20250368742A1.
